- assayNotes: Pharmacokinetics in mongrel dogs
- Format: in vivo
- conditionDescription: dog, in vivo, read-out: Volume of distribution at steady state (Vss)
observable: Vd (L/kg)
Answers are plain numbers, in L/kg.

CCCC(CCC)C(=O)NCCS(N)(=O)=O [Compound A, N-(2-Propylpentanoyl)taurinamide] yielded Vd of 0.84

* * *

- assayNotes: Pharmacokinetics in mongrel dogs
- Format: in vivo
- conditionDescription: dog, in vivo
observable: half-life (h)
Give bare numbers, in h.

// half-life lookup, compound = CCCC(CCC)C(=O)NCCS(N)(=O)=O [Compound A, N-(2-Propylpentanoyl)taurinamide] , result: 5.6

* * *

- assayNotes: in vivo
- conditionDescription: rat, in vivo, ip
observable: TD50

# TD50 (molecule: CCCC(CCC)C(=O)NCCS(N)(=O)=O [Compound A, N-(2-Propylpentanoyl)taurinamide] ) is > 300 mg/kg
